All values here come from paper PMC9995496.

System: PRKACA-PRKAR2A interaction (SmBiT-PRKACA / LgBiT-PRKAR2A), protein kinase A
Design: NanoLuc complementation counter-screen in cell extract, PRKACA with PRKAR2A, loss of luminescence, detects NanoLuc interference
Settings: counter-screen for NanoLuc interference; 0.5 h, 20 µM; inhibitor
Kind request: treat 7% as inclusive, so Inh (PKA) at 7% or higher is rule met, anything lower is rule not met.

# Compound, Category label
records = [
    ("C[C@H](NC(=O)Cc1cc(F)cc(F)c1)C(=O)N[C@@H]1C(=O)N(C)c2ccccc2-c2ccccc21 [UM0141666:01, YO-01027 (Dibenzazepine, DBZ)]", "rule not met"),
    ("CC(NC(=O)c1ccccc1/N=C/c1c(O)ccc2ccccc12)c1ccccc1 (stereo not shown)", "rule met"),
    ("N#Cc1ccnc(N2C(=O)CC[C@H]2C(=O)N(c2cncc(F)c2)[C@H](C(=O)NC2CC(F)(F)C2)c2ccccc2Cl)c1", "rule not met"),
    ("CC(C)(C)c1cc(C=C(C#N)C#N)cc(C(C)(C)C)c1O", "rule met"),
    ("O=C(COc1ccc(Cl)cc1)N[C@H]1CC[C@H](NC(=O)COc2ccc(Cl)cc2)CC1 [UM0142547:01, ISRIB (trans-isomer)]", "rule not met"),
    ("CCc1c(-c2ccccc2)c(-c2ccccc2)nn1-c1ccccc1-c1cccc(OCC(=O)O)c1", "rule met"),
]

###

Reported values of Inhibition percent for individual entries
Target: MeCP2-TBL1 interaction (MeCP2-SmBiT / TBL1-LgBiT) (Mus musculus)
Construct: expressed in transfected cells; crude lysate used as a cell-free assay
Sequence (Q9QXE7 166-527): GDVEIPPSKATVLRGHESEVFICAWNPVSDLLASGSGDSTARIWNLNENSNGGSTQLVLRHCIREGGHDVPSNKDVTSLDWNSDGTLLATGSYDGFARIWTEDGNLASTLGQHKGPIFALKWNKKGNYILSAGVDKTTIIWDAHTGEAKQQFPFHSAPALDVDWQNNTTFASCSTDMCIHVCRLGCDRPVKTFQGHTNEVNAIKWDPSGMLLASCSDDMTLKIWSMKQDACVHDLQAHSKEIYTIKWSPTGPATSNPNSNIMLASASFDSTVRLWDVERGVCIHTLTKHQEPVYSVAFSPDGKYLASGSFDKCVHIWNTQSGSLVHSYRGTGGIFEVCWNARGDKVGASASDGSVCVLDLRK
Assay: MeCP2-TBL1 NanoLuc luciferase complementation assay (cell-free, extracts of transfected HEK293 cells);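 note: each compound tested at 20 µM final concentration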
Type: binding, human
Conditions: primary screen of the Asinex library, sheet "Sargen output Asinex library", one well per compound, Batch Ref. 1
Assay metric: Inhibition percent (%)

# Compound, Target system, Recorded result
measured = [
    ("C[C@]12C[C@@H](Cc3ccccc3)N(C(=O)c3ccc(NCc4cccnc4)cc3)[C@H]1CCCC(=O)N2", "MeCP2-TBL1 interaction (MeCP2-SmBiT / TBL1-LgBiT) (Mus musculus)", 7.42),
    ("O=C(Cn1cccn1)N1CCOC(c2cc(C(=O)N3CCOCC3)c3ccccc3n2)C1 (stereo not shown)", "MeCP2-TBL1 interaction (MeCP2-SmBiT / TBL1-LgBiT) (Mus musculus)", -2.04),
    ("COc1ccc(Cc2ccc(C3CCCN3C(=O)CCn3ncc4ccccc43)nc2)cc1 (stereo not shown)", "MeCP2-TBL1 interaction (MeCP2-SmBiT / TBL1-LgBiT) (Mus musculus)", 3.10),
    ("COc1ccc([C@@H]2C[C@]3(C)NC(=O)CCC[C@@H]3N2CC(=O)NCc2ccc3[nH]c(C)c(C)c3c2)cc1", "MeCP2-TBL1 interaction (MeCP2-SmBiT / TBL1-LgBiT) (Mus musculus)", -0.10),
    ("Cc1cccc(CC(=O)N2CCCCC2c2ncc(C(=O)NCc3ccccc3)c(C)n2)c1 (stereo not shown)", "MeCP2-TBL1 interaction (MeCP2-SmBiT / TBL1-LgBiT) (Mus musculus)", -1.94),
    ("CC1(C(=O)N2CCOCC(Cc3ccc4ncccc4c3)C2)CCN(C(=O)c2ccccc2)CC1 (stereo not shown)", "MeCP2-TBL1 interaction (MeCP2-SmBiT / TBL1-LgBiT) (Mus musculus)", 0.77),
    ("CN(Cc1ccccc1)[C@@H]1[C@@H](O)[C@H](Oc2cccc(C(F)(F)F)c2)C[C@H]1NC(=O)c1cocn1", "MeCP2-TBL1 interaction (MeCP2-SmBiT / TBL1-LgBiT) (Mus musculus)", 4.93),
]

###

Inh (PKA) by entry:
Test system: PRKACA-PRKAR2A interaction (SmBiT-PRKACA / LgBiT-PRKAR2A), protein kinase A
Design: NanoLuc complementation counter-screen in cell extract, PRKACA with PRKAR2A, loss of luminescence, detects NanoLuc interference
Settings: counter-screen for NanoLuc interference, 0.5 h, 20 µM, inhibitor, Inh (PKA)
Structures can show the parent of a compound that is named as a salt.

# Compound, Inh (PKA) [%]
rows = [
    ("CN(C)C/C=C/C(=O)Nc1cc2c(Nc3ccc(F)c(Cl)c3)ncnc2cc1O[C@H]1CCOC1 [UM0141512:01, Afatinib dimaleate]", 6.216),
    ("O=C(Nc1ccc2[nH]nc(-c3ccncc3)c2c1)[C@@H]1CCN(CC(=O)N2CCN(c3ccc(-c4ncccn4)cc3)CC2)C1 [UM0142677:01, SCH772984 HCl]", 18.36),
    ("COc1ccc(S(=O)(=O)N(CCO)c2ccccc2CN(C)C/C=C/c2ccc(Cl)cc2)cc1 [UM0141574:01, KN-93]", 44.92),
    ("COc1cc2nccc(Oc3ccc(NC(=O)C4(C(=O)Nc5ccc(F)cc5)CC4)cc3)c2cc1OC [UM0141491:01, Cabozantinib (XL184, BMS-907351)]", 10.46),
    ("CNC(=O)c1cc(Oc2ccc(NC(=O)Nc3ccc(Cl)c(C(F)(F)F)c3)cc2)ccn1 [UM0127950:06, Sorafenib]", 5.105),
    ("Nc1nc2[nH]cc(CCc3ccc(C(=O)N[C@@H](CCC(=O)O)C(=O)O)cc3)c2c(=O)[nH]1 [UM0141829:01, Pemetrexed]", -0.0222),
]

###

Tested on: PRKACA-PRKAR2A interaction (SmBiT-PRKACA / LgBiT-PRKAR2A), protein kinase A
Design: NanoLuc complementation counter-screen in cell extract, PRKACA with PRKAR2A, loss of luminescence, detects NanoLuc interference
Details: counter-screen for NanoLuc interference; 0.5 h, 20 µM; inhibitor
Structures can show the parent of a compound that is named as a salt.

# Compound, Inh (PKA) [%]
records = [
    ("CNCc1ccc(C)c(NC(=O)c2ccc(Nc3nc(-c4ccccc4)c4ccccc4n3)cc2)c1 [UM0141527:01, BMS-833923]", 45.75),
    ("COc1ccc(CCC(=O)Nc2nc3ccc(Cl)cc3s2)cc1OC [UM0141953:01, KY 02111]", 9.326),
    ("Cc1ccc(C(=O)Cn2c3c(sc2=N)CCCC3)cc1 [UM0134099:02, Pifithrin-?]", 9.08),
    ("CC#CCn1c(N2CCC[C@@H](N)C2)nc2c1c(=O)n(Cc1nc(C)c3ccccc3n1)c(=O)n2C [UM0141673:01, Linagliptin (BI-1356)]", 1.695),
    ("CN1CCc2c(c3ccccc3n2Cc2ccc(C(=O)NO)cc2)C1 [UM0142080:01, Tubastatin A HCl]", 2.454),
    ("O=C1CCC(N2C(=O)c3ccccc3C2=O)C(=O)N1 (centres unmarked) [UM0141766:01, Thalidomide]", -0.2984),
    ("Cc1ccc(NC(=O)Nc2cc(C(F)(F)F)ccc2F)cc1Nc1ccc2c(c1)NC(=O)/C2=C\\c1ccc[nH]1 [UM0141977:01, GNF-5837]", 11.58),
    ("COc1ccc(/C=C(\\C#N)c2cccnc2)cc1OC [UM0142745:01, RG 13022]", 13.99),
    ("Cc1c(CN2CCN(S(C)(=O)=O)CC2)sc2c(N3CCOCC3)nc(-c3cnc(N)nc3)nc12 [UM0142817:01, GNE-477]", 0.346),
    ("O=C1c2ccccc2C(=O)c2oc(-c3cccnc3)nc21 [UM0142199:01, SJB3-019A]", 9.933),
    ("CC1=C(/C=C/C(C)=C/C=C/C(C)=C\\C(=O)O)C(C)(C)CCC1 [UM0133752:04, Isotretinoin]", 16.35),
    ("CC[C@H]1OC(=O)[C@H](C)[C@@H](O[C@H]2C[C@@](C)(OC)[C@@H](O)[C@H](C)O2)[C@H](C)[C@@H](O[C@@H]2O[C@H](C)C[C@H](N(C)C)[C@H]2O)[C@](C)(OC)C[C@@H](C)C(=O)[C@H](C)[C@@H](O)[C@]1(C)O [UM0121462:03, Clarithromycin]", 0.9252),
    ("Cc1c(Cn2c(C)nc3c(C(=O)O)cc(N4CCOCC4)cc32)cccc1C(F)(F)F [UM0142436:01, GSK2636771]", -0.2162),
    ("O=C(O)c1ccc2c(c1)nc(Nc1cccc(Cl)c1)c1ccncc12 [UM0141995:01, CX-4945 (Silmitasertib)]", 36.81),
]
